Quick list: Mean OD at plasma conc. 6.40 ng/mL per entry.
# TEST_TARGET: T1, exemplary TAT frataxin fusion molecule (HIV-1, UniProt Q16595 1-210)
# T1 construct: in the bridging assays biotinylated and sulfotagged forms were used; also called TAT-FXN fusion molecule; TAT FXN fusion molecule
# T1 sequence: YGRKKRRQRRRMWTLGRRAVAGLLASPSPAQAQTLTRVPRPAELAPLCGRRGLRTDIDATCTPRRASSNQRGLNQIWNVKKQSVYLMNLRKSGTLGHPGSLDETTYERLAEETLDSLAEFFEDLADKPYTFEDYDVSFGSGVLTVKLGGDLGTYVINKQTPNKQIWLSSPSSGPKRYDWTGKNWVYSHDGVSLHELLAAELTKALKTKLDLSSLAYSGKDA
# METHOD_DESCRIPTION: PK sandwich ELISA in human plasma, antibody as capture, HRP anti-frataxin mAb detection

BINDER: antibody 12-3 (antibody, V domains shown, Rabbit monoclonal) VH: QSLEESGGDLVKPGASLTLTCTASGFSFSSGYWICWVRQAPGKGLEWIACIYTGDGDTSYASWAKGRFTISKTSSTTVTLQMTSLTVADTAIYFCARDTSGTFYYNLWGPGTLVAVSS VL: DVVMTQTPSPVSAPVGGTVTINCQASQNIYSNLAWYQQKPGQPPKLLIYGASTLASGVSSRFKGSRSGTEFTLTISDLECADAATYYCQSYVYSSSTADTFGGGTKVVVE
UNIT: OD
Mean OD at plasma conc. 6.40 ng/mL: 0.416
--
BINDER: antibody 10-1 (antibody, V domains shown, Rabbit monoclonal) VH: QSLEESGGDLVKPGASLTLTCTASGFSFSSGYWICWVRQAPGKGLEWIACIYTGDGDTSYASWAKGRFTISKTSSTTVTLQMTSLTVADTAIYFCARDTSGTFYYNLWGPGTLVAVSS VL: ELVLTQTASSVSAAVGGTVTISCQSSESVYKTNYLSWFQKKPGQPPKLLIYDASTLASGVPSRFSGSGSGTQFTLTISDLECDDAATYYCAGGYSDDINAFGGGTEVVVK
UNIT: OD
Mean OD at plasma conc. 6.40 ng/mL: 0.43
--
BINDER: antibody 10-12 (antibody, V domains shown, Rabbit monoclonal) VH: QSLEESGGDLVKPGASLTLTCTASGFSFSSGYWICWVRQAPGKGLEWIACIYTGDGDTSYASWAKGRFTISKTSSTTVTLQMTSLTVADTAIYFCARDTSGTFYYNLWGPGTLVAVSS VL: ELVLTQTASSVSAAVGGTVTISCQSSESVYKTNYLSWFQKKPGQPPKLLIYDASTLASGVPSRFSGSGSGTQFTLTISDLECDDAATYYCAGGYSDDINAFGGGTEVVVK
UNIT: OD
Mean OD at plasma conc. 6.40 ng/mL: 0.417
